Task for the reader: assign each of the following molecules its reported IC50.
TEST TARGET: PAR2 (HT-29 cells, SLIGKV activation) (Homo sapiens, UniProt P55085)
Construct: host or cells: HT-29 cells
Sequence (P55085 26-397): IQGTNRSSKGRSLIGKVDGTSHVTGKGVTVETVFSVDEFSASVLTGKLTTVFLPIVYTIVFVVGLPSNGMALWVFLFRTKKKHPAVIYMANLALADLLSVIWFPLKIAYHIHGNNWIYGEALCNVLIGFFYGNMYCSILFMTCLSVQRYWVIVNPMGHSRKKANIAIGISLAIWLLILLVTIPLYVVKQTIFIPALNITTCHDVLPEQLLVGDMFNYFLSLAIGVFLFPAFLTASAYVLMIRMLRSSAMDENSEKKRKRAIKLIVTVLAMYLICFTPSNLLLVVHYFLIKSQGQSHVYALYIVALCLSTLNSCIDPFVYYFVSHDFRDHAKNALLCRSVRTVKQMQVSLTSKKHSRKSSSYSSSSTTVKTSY
METHOD SUMMARY: Ca FLIPR TETRA assay, ANTAGONIST mode, stimulation with 8 μM SLIGKV
Assay type: cell-based
APPLIED CONDITIONS: HT-29 cells, antagonist mode, stimulation with 8 μM SLIGKV
Answers are plain numbers, in nM.

Some molecules with recorded IC50:
>>> measured_number("Cc1nc(C(=O)N2CCN(C(=O)c3cn4nc(-c5ccc(F)c(Br)c5)cc(C(C)(C)C)c4n3)C(C)(C)C2)n[nH]1 [Compound I-504]")
1.2
>>> measured_number("CC(C)(C)c1cc(-c2ccc(F)c(Cl)c2)nn2cc(C(=O)N3CCN(C(=O)c4ncccn4)CC3(C)C)nc12 [Compound I-464]")
1.2
>>> measured_number("CN(C)C(=O)C(C)(C)c1cc(-c2ccc(F)cc2)nn2cc(C(=O)N3CCNC(=O)C3(C)C)nc12 [Compound I-192]")
575
>>> measured_number("CC(C)c1cc(-c2ccc(C(F)F)cc2)nn2cc(C(=O)N3CCNC(=O)C3(C)C)nc12 [Compound I-300]")
27.7
>>> measured_number("Cc1nc(C(=O)N2CCN(C(=O)c3cn4nc(-c5ccc(F)cc5)cc(C(C)(C)C)c4n3)C(C)(C)C2)n(COP(=O)(O)O)n1 [Compound I-481]")
47.2

Value sought for every listed molecule: IC50.
1. CC(C)c1cc(-c2ccc(C(F)F)cc2)nn2cc(C(=O)N3CCN(C(=O)c4nc[nH]n4)CC3(C)C)nc12 [Compound I-294]
2. COC(=O)C(C)(C)CC(=O)N1CCN(C(=O)c2cn3nc(-c4ccc(F)cc4)cc(C(C)(C)C)c3n2)C(C)(C)C1 [Compound I-528]

1. 8.8
2. 1.8
